Target: T1, monomeric hIL-4R (R&D Systems) (human, UniProt P24394 26-231)
T1 construct: Bought (R&D Systems); also called hIL-4R monomer
T1 sequence: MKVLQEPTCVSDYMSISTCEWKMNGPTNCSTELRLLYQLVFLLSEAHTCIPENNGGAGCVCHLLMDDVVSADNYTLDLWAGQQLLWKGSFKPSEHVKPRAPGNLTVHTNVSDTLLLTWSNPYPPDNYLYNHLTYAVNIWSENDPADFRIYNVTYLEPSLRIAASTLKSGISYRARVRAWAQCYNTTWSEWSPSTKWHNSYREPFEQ
Assay: SPR (BIAcore 2000); antibody captured, monomeric hIL-4R injected
Listing of entries alongside the reported T1/2 monomeric.
Readout Type: T1/2 monomeric (min)

>>> recorded_value("VAK8G11-13 (antibody, V domains shown, Apparently tested with mouse constant region (anti-mouse IgG capture/detection)) VH: QVRLVESGGGVVQPGGSLRLSCAASGFIFRSYGMHWVRQAPGRGLEWVAVISYDGSKTFYVDSVKVRFTISRDNSKNTLYLEMNSLRVDDTAVYFCVKEGRSGSWFDPWGQGTLVAVSS VL: DIHMTQSPSSLSASVGDRVTITCRASQAINNFLAWFQQKPGKTPKSLIFATSSLQSGVPSRFSGSGSGTDFTLTISSLQPEDFATYYCQQYNSHPWTFGQGTKVEIK")
840
>>> recorded_value("VAB 1H1-2 (antibody, V domains shown, Apparently tested with mouse constant region (anti-mouse IgG capture/detection)) VH: QVQLVQSGAEVKKPGASVKVSCKASGYTFTSYGISWVRQAPGQGLEWMGWISVYNGNTNYAQKLQGRVTMTTDTSTSTAYMDLRSLRSDDAAVYYCARGSGYDFDYWGQGTLVTVSS VL: AIQMTQSPSSLSASVGDRVTITCRASQGIRNALGWYQQKPGKAPKLLIYAASSLQSGVPSRFSGSGSGTDFTLTISSLQSEDFATYYCLQDYNYPYTFGQGTKLEIK")
8
>>> recorded_value("VAB 6C10-14 (antibody, V domains shown, Apparently tested with mouse constant region (anti-mouse IgG capture/detection)) VH: QVQLVQSGAEVKKPGASVKVSCKASGYTFTNYGLTWVRQAPGRGLEWMGWISVYNGNTNYAQTLKGRVTMTTDTSTSTAYMELKSLRSDDTAVYYCARGSGYDFDYWGQGTLVTVSS VL: AIQMTQSPSSLSASVGDRVAITCRASQDIRNDLGWYQQKPGKAPKLLIHTASSLQSGVPSRFSGSGSGTDFTLTISNLQPEDFATYYCLQDNSYPYTFGQGTKLEIN")
73
>>> recorded_value("VAB 10G8-19 (antibody, V domains shown, Apparently tested with mouse constant region (anti-mouse IgG capture/detection)) VH: QVQLVQSGAEVKKPGASVKVSCKASRYTFTSYDINWVRQATGQGLEWMGWMNPNSGNTGYAQKFQGRVTMTRNTSTSTAYMELSSLRSEDTAVYYCARVRRFFDYWGQGTLVTVSS VL: DIQLTQSPSFLSASVGDRVTITCWASQGIISYLAWYQQKPGKAPKLLIYAASTLHSGVPSRFSGSGSGTEFTLTISSLQPEDFATYYCHQLKSYPITFGQGTRLEIK")
2
>>> recorded_value("VAB 10C1-5 (antibody, V domains shown, Apparently tested with mouse constant region (anti-mouse IgG capture/detection)) VH: QVQLVETGGDLVRPGGSLRLSCTASGFTLSDYYMSWIRQAPGKGLEWVSYIRRSGNTIYYADSVKGRFTISRDNAKNSLYLQMNSLRAEDTAVYYCARGGDWADVWGQGTTVTVSS VL: DIQMTQSPSSLSASVGDRVTITCRASQGISIYLAWFQQKPGKAPKSLIYAASSLQRGVPSKFSGSGSGTDFTLTISSLQPEDFATYYCQQYNSYPYTFGQGTKLEIK")
6

Numbers sourced from patent US20080160035A1.
